# assay_system: T1, human CD3 expressed on cells (Jurkat cells; human CD4 T cells) (human, UniProt P07766 23-207)
# T1 construct: whole, on cells; also called human CD3 receptor on T cell surface; human CD3 expressing cells (Jurkat cells)
# T1 sequence (P07766 23-207): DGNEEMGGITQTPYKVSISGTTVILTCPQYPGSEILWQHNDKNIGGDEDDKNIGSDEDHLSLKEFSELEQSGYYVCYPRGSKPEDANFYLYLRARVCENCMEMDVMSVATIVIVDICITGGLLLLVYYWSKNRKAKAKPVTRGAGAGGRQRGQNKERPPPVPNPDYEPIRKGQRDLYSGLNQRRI
# measurement_description: flow cytometry on Jurkat cells, one site saturation fit
result_type: Kd (pM)
Give just the number in pM; leave the unit off.

A selection of reference data follows.
binder | Kd (pM)
WBP3311_2.383.47 (antibody, V domains shown, Mouse monoclonal antibody from hybridoma) VH: QVQLQQSGPELVKPGASVRISCKTSGFTFTNYYIHWVIQRPGQGLEWIGWISPENGNTKYNENFQDKATLTADISSSTAYMHLSSLTSEDSAVYFCARDGYSLYYFDYWGQGTTLTVSS VL: DIVMSQSPSSLTVSAGEKVTMSCKSSQSLLNSRTRKNYLAWYQQKPGQSPKLLIYWASIRVSGVPDRFTGSGSGTTFTLTISGVQAEDLAVYYCTQSHTLRTFGGGTKLEIK | 403
WBP3311_2.482.5 (antibody, V domains shown, Mouse monoclonal antibody from hybridoma; also called W3311-2.482.5) VH: QVQLQQSGPELVKPGSSVKISCKPSGYTFTTYYIHWVKQRPGQGLEWIGWIFPGSDNIKYNENFKDKATLTADTSSSTAYMQLSSLTSEDSAVYFCARDSVSRYYFDYWGQGTILTVSS VL: DIVMSQSPSSLAVSAGEKVTMSCKSSQSLVNDRTRKNYLAWYQQKPGLSPKLLIYWASTRESGVPDRFTGSGSGTDFTLTISSVQAEDLAVYYCAQSFILRTFGGGTKLEIK | 2290

We now examine a further binder.
Indicate its recorded Kd; the binder in question is WBP3311_2.306.4 (antibody, IgG2b, V domains shown, Mouse monoclonal antibody from hybridoma; also called W3311-2.306.4; W3311-2.306.4-mIgG2bK) VH: QVQLQQSGPELVKPGASVRISCKASGFAFTDYYIHWVKQRPGQGLEWIGWISPGNVNTKYNENFKGRATLTADLSSSTAYMQLSSLTSEDSAVYFCARDGYSLYYFDYWGQGTTLTVSS VL: DIVMSQSPSSLTVSAGEKVTMSCKSSQSLLNSRTRKNYLAWYQQKPGQSPKLLIYWASTRQSGVPDRFTGSGSGTAFTLTISGVQAEDLAVYFCTQSHTLRTFGGGTKLEIK
191

Ref: patent US20200299384A1
